Entries and their measured neutralization IC50 follow.
biological target: HIV-1 Env of CAP210.E8 (HIV-1); assay: cell-based or functional assay
Give the value, in units of µg/mL, as a plain number.

// known answers, use as guide
CAP256-VRC26.12 (antibody, V domains shown) VH: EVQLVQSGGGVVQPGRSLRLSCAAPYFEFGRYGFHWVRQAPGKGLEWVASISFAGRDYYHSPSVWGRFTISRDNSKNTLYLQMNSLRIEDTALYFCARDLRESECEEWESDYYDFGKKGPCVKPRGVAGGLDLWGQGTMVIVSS VL: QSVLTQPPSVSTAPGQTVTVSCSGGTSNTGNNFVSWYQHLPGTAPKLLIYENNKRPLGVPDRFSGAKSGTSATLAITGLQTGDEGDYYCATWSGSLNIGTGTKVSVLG    0.072
CAP256-VRC26.07 (antibody, V domains shown) VH: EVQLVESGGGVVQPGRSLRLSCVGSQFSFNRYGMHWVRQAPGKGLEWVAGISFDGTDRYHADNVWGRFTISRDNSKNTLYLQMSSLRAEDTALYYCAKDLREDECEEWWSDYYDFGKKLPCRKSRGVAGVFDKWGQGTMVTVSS VL: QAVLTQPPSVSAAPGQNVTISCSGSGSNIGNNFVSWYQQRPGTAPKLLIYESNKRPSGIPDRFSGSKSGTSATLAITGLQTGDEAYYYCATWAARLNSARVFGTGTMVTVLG    0.021

Kindly consider the entry below.
IN: Input CAP256-VRC26.02 (antibody, V domains shown) VH: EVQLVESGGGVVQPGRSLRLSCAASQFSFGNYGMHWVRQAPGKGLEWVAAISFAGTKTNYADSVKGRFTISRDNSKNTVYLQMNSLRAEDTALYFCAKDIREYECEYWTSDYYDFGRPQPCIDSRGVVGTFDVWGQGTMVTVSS VL: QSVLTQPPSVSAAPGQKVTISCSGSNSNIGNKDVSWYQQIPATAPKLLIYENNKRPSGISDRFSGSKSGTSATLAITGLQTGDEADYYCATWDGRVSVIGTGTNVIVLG , output reported neutralization IC50.
OUT: 0.062

Reference for the values: patent US20200199204A1
